- measurement.notes: Pharmacokinetics in mouse plasma and brain after single i.p. injection
- Format: in vivo
- test.conditions: both sexes, wildtype F1, ip; mouse plasma, 10 mg/kg i.p.
property.name: Tmax

INPUT: Hello, please tell me recorded Tmax for this one: CC(C)(C)OC(=O)N1CCN(C(=O)c2cn(CCCCCF)c3ccccc23)CC1 [SB2193F]
OUTPUT: ≤ 15 min

* * *

Quick reference for pIC50 among some compounds
- test.target: human Cav3.3 (Homo sapiens, UniProt Q9P0X4)
- Construct: expressed in transfected cells; host or cells: HEK293 FlpIn T-Rex cells (Invitrogen)
- Sequence (Q9P0X4 whole entry): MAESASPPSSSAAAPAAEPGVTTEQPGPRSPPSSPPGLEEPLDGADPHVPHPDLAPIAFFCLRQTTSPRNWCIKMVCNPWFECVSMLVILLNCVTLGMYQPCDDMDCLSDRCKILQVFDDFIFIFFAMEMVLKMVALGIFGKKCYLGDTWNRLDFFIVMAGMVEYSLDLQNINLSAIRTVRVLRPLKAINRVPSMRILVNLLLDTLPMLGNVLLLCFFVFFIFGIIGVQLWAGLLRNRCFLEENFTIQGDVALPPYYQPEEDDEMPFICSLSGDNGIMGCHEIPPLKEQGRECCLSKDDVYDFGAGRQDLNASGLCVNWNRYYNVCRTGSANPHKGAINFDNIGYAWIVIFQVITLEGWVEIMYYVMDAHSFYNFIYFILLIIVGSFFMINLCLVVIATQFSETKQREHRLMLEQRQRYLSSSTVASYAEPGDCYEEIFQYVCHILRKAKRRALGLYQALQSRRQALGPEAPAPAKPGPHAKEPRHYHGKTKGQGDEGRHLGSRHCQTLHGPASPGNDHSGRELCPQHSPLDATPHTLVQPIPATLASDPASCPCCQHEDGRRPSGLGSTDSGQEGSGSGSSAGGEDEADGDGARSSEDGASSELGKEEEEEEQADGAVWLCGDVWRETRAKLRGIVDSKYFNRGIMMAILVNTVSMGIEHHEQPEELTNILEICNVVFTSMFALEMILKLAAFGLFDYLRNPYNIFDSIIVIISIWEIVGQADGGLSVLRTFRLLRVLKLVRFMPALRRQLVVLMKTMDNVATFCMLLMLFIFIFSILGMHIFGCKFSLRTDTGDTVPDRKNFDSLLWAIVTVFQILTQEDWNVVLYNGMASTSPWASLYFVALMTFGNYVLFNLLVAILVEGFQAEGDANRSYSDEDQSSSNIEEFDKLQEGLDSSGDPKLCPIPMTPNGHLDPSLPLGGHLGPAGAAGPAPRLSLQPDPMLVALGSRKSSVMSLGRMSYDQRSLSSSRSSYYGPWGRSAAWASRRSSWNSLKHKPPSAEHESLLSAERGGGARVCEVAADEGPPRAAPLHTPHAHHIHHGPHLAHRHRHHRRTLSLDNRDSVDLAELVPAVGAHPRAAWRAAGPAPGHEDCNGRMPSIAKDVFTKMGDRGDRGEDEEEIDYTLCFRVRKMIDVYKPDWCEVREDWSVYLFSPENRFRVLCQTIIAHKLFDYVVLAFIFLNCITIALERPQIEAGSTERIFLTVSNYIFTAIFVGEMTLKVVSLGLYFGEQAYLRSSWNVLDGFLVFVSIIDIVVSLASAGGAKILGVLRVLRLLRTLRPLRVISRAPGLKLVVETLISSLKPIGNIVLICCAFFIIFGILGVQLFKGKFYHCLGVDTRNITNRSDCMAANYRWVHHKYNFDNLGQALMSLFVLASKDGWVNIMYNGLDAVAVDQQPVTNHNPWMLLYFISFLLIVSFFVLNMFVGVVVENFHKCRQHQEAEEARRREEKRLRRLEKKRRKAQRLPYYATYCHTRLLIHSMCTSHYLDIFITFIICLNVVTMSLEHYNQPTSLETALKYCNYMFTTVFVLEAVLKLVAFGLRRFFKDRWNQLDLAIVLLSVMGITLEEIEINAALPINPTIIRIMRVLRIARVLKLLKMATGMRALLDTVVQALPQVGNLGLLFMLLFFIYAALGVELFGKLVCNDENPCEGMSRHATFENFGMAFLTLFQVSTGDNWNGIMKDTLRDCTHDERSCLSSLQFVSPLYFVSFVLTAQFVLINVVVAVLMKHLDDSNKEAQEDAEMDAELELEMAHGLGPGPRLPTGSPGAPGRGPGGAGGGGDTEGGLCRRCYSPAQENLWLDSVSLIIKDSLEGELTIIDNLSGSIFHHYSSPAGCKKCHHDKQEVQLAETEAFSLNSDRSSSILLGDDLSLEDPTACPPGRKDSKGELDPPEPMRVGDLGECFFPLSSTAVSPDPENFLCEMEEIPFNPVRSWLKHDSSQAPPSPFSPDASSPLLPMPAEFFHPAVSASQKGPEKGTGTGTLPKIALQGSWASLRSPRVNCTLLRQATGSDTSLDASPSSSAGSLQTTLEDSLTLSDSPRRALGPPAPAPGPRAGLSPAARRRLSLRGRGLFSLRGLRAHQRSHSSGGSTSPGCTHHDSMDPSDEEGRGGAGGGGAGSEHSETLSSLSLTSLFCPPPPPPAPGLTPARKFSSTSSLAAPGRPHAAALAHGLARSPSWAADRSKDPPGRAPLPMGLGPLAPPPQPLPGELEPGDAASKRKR
- measurement.notes: FLIPR calcium flux assay, Cav3.3
- Format: cell-based
In simple prose, pIC50 is minus the logarithm base ten of a concentration in moles per litre.

{"columns": ["compound", "pIC50"],
 "data": [
  ["CCCCCn1cc(C(=O)N2CCN(C(=O)OC(C)(C)C)CC2)c2ccccc21", 5.27]
]}

INPUT: Hello, please tell me recorded pIC50 for this one: CC(C)(C)OC(=O)N1CCN(C(=O)c2cn(CCCCCF)c3ccccc23)CC1 [SB2193F]
OUTPUT: 5.07

* * *

- measurement.notes: Pharmacokinetics in mouse plasma and brain after single i.p. injection
- Assay type: in vivo
- test.conditions: both sexes, wildtype F1, ip; mouse plasma, 10 mg/kg i.p.; read-out: Cmax (μg/mL)
property.name: Cmax (µg/mL)
Supply the numeric figure in µg/mL, leaving out any unit text.

INPUT: Hello, please tell me recorded Cmax for this one: CC(C)(C)OC(=O)N1CCN(C(=O)c2cn(CCCCCF)c3ccccc23)CC1 [SB2193F]
OUTPUT: 1.3

* * *

- measurement.notes: Pharmacokinetics in mouse plasma and brain after single i.p. injection
- Format: in vivo
- test.conditions: both sexes, wildtype F1, in vivo, ip; mouse plasma, 10 mg/kg i.p.
property.name: half-life (min)
Supply the numeric figure in min, leaving out any unit text.

INPUT: Hello, please tell me recorded half-life for this one: CCCCCn1cc(C(=O)N2CCN(C(=O)OC(C)(C)C)CC2)c2ccccc21 [SB2193]
OUTPUT: 29

* * *

- measurement.notes: Pharmacokinetics in mouse plasma and brain after single i.p. injection
- Format: in vivo
- test.conditions: both sexes, wildtype F1, in vivo, ip; mouse, 10 mg/kg i.p.; read-out: brain-plasma ratio
- Description: SB2193 and SB2193F were prepared in ethanol-Tween 80%–0.9% saline (1:1:18 ratio) and valproic acid in 0.9% saline. All doses were completely soluble in this vehicle except for the 100 mg/kg SB2193 dose, which was a suspension. […] Quantification was achieved by comparing experimental samples to plasma and brain standards prepared with known concentrations of SB2193 or SB2193F. Samples were quantified against a 7-point standard curve (R ^2 > 0.98 for both analytes). […]
property.name: Kp
Respond using a number only.

INPUT: Hello, please tell me recorded Kp for this one: CCCCCn1cc(C(=O)N2CCN(C(=O)OC(C)(C)C)CC2)c2ccccc21 [SB2193]
OUTPUT: 2.7

* * *

- measurement.notes: Pharmacokinetics in mouse plasma and brain after single i.p. injection
- Format: in vivo
- test.conditions: both sexes, wildtype F1, ip; mouse plasma, 10 mg/kg i.p.; read-out: Cmax
property.name: Cmax (µM)
Supply the numeric figure in µM, leaving out any unit text.

INPUT: Hello, please tell me recorded Cmax for this one: CC(C)(C)OC(=O)N1CCN(C(=O)c2cn(CCCCCF)c3ccccc23)CC1 [SB2193F]
OUTPUT: 3.1

* * *

- measurement.notes: Pharmacokinetics in mouse plasma and brain after single i.p. injection
- Assay type: in vivo
- test.conditions: both sexes, wildtype F1, mouse, in vivo, ip, 10 mg/kg, mouse brain, 10 mg/kg i.p.; brain concentration converted assuming density of 1 g/mL
- Method: SB2193 and SB2193F were prepared in ethanol-Tween 80%–0.9% saline (1:1:18 ratio) and valproic acid in 0.9% saline. All doses were completely soluble in this vehicle except for the 100 mg/kg SB2193 dose, which was a suspension. […] Quantification was achieved by comparing experimental samples to plasma and brain standards prepared with known concentrations of SB2193 or SB2193F. Samples were quantified against a 7-point standard curve (R ^2 > 0.98 for both analytes). […]
property.name: AUC

INPUT: Hello, please tell me recorded AUC for this one: `CCCCCn1cc(C(=O)N2CCN(C(=O)OC(C)(C)C)CC2)c2ccccc21`
OUTPUT: 583 ng·h/mL

* * *

- measurement.notes: Pharmacokinetics in mouse plasma and brain after single i.p. injection
- Type: in vivo
- test.conditions: both sexes, wildtype F1, mouse, plasma, ip, 10 mg/kg, mouse plasma, 10 mg/kg i.p.
- Procedure: SB2193 and SB2193F were prepared in ethanol-Tween 80%–0.9% saline (1:1:18 ratio) and valproic acid in 0.9% saline. All doses were completely soluble in this vehicle except for the 100 mg/kg SB2193 dose, which was a suspension. […] Quantification was achieved by comparing experimental samples to plasma and brain standards prepared with known concentrations of SB2193 or SB2193F. Samples were quantified against a 7-point standard curve (R ^2 > 0.98 for both analytes). […]
property.name: AUC (ng·h/mL)
Supply the numeric figure in ng·h/mL, leaving out any unit text.

INPUT: Hello, please tell me recorded AUC for this one: CC(C)(C)OC(=O)N1CCN(C(=O)c2cn(CCCCCF)c3ccccc23)CC1 [SB2193F]
OUTPUT: 733

* * *

- measurement.notes: Pharmacokinetics in mouse plasma and brain after single i.p. injection
- Format: in vivo
- test.conditions: both sexes, wildtype F1, in vivo, ip; mouse plasma, 10 mg/kg i.p.; read-out: Cmax (μg/mL)
property.name: Cmax (µg/mL)
Supply the numeric figure in µg/mL, leaving out any unit text.

INPUT: Hello, please tell me recorded Cmax for this one: CCCCCn1cc(C(=O)N2CCN(C(=O)OC(C)(C)C)CC2)c2ccccc21 [SB2193]
OUTPUT: 0.3

Just for reference, paper PMC10110893 is where these values come from.
